Reference source: paper PMC9358669

target: Elastase (Sus scrofa); construct: purchased Sigma-Aldrich; assay: Elastase inhibition, fluorogenic substrate assay (MeOSuc-Ala-Ala-Pro-Val-AMC); format: biochemical, Sus domesticus; conditions: Elastase; inhibitor concentration 0.457247 nM; 40 min pre-incubation
Sequence (P00772 27-266): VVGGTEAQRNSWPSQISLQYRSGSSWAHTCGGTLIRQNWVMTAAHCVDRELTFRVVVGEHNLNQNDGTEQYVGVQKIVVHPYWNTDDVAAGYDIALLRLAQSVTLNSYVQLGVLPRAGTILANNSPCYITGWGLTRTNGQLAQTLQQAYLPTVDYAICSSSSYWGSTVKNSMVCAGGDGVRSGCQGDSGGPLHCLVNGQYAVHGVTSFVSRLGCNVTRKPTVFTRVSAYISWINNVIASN
observation.type: Mean (RFU/s)
Could you give me the number in RFU/s? Just the number is fine.

[
  {
    "compound": "CC=C1NC(=O)[C@@H](NC(=O)[C@@H](NC(=O)[C@@H]2CCCN2C(=O)CCC)[C@@H](C)OC(=O)C2CCCN2C(=O)CCC)[C@@H](C)OC(=O)[C@H](C(C)C)NC(=O)[C@H](Cc2ccc(O)cc2)N(C)C(=O)[C@H](Cc2ccccc2)N2C(=O)[C@H](CC[C@H]2O)NC1=O (stereo partly drawn) [Rivulariapeptolide 1155, rivulariapeptolide 1155]",
    "Mean (RFU/s)": 0.839
  }
]

Now consider the entry below.
For the compound C/C=C1\NC(=O)[C@@H](NC(=O)[C@@H](NC(=O)[C@H](C)NC(=O)CCC)[C@@H](C)O)[C@@H](C)OC(=O)[C@H](C(C)C)NC(=O)[C@H](Cc2ccc(O)cc2)N(C)C(=O)[C@H](Cc2ccccc2)N2C(=O)[C@H](CC[C@H]2O)NC1=O [Molassamide, molassamide] , what Mean (RFU/s) is on record?
0.841
